Values from the METLIN SMRT retention time set (Domingo-Almenara et al. 2019)

Assay: gradient 5% acetonitrile 3 min, to 50% in 2 min, to 85% in 15 min, held 3 min, 100 µL/min
Settings: column: Zorbax Extend-C18 2.1 x 50 mm; eluents: water / acetonitrile, 0.1% formic acid
REPORTED_METRIC: RP-LC retention time (s)

>  <MOLECULE>
Cn1cc(CCNC(=O)Nc2ccccc2C(F)(F)F)c2cccnc21

>  <REPORTED_METRIC>
RP-LC retention time

>  <VALUE_UNIT>
s

>  <RESULT_NUMBER>
779

$$$$
>  <MOLECULE>
CCCCC(=O)Nc1nc(-c2ccc3c(c2)N(CC)C(=O)CO3)cs1

>  <REPORTED_METRIC>
RP-LC retention time

>  <VALUE_UNIT>
s

>  <RESULT_NUMBER>
932

$$$$
>  <MOLECULE>
Cc1cc(-c2nnc(-c3ccccc3)o2)c(C)n1CC(=O)NCc1ccccc1Cl

>  <REPORTED_METRIC>
RP-LC retention time

>  <VALUE_UNIT>
s

>  <RESULT_NUMBER>
966

$$$$
>  <MOLECULE>
Cc1ccc(NC(=O)Nc2ccc(NC(=O)N3CCC(C(=O)NCC4CC4)CC3)cc2)cc1

>  <REPORTED_METRIC>
RP-LC retention time

>  <VALUE_UNIT>
s

>  <RESULT_NUMBER>
740

$$$$
>  <MOLECULE>
COCCN1[C@@H]2CCN(Cc3ccc(C#N)cc3)C[C@@]2(C(=O)N2CCOCC2)CCS1(=O)=O

>  <REPORTED_METRIC>
RP-LC retention time

>  <VALUE_UNIT>
s

>  <RESULT_NUMBER>
641

$$$$
>  <MOLECULE>
Cc1ccc(C)c(S(=O)(=O)N2CCc3c(c(-c4nnc(-c5ccccc5F)o4)nn3C)C2)c1

>  <REPORTED_METRIC>
RP-LC retention time

>  <VALUE_UNIT>
s

>  <RESULT_NUMBER>
1010

$$$$

I = CCc1onc(C)c1C1CCCN1C(=O)Nc1cccc(OC)c1 (stereo not given)
II = Fc1ccccc1-c1noc(-c2nc(-c3ccccc3F)no2)n1
Query string: // max by RP-LC retention time over [ I , II ] I would appreciate it if you answered with the label of your choice.
Result string: II
(II: 1140 s, I: 791 s)

a = COc1cccc(CNC(=O)Cn2c(=O)c3cc(C)nn3c3ncccc32)c1
b = O=C(Nc1ccc2c(c1)OCCO2)C1CCCN(c2nccnc2Sc2ccccc2)C1 (stereo not given)
Query string: // max by RP-LC retention time over [ a , b ] I would appreciate it if you answered with the label of your choice.
Result string: b

====

Assay: gradient 5% acetonitrile 3 min, to 50% in 2 min, to 85% in 15 min, held 3 min, 100 µL/min
Conditions: column: Zorbax Extend-C18 2.1 x 50 mm; eluents: water / acetonitrile, 0.1% formic acid
REPORTED_METRIC: RP-LC retention time (s)

In the examples that follow, each entry is paired with its recorded RP-LC retention time.
>  <MOLECULE>
CCOc1cc(S(=O)(=O)Nc2cccc3cn[nH]c23)ccc1Br

>  <RP-LC retention time (s)>
804

$$$$
>  <MOLECULE>
Cc1noc(-c2nc(Cc3ccc(F)cc3)no2)n1

>  <RP-LC retention time (s)>
953

$$$$

a = CCSc1ccc(-n2ncc(C(=O)NC3CC3)c2C)nn1
b = Cc1ccc(Sc2nccnc2N2CCCC(C(=O)N3CCN(c4ccc(C)cc4)CC3)C2)cc1 (stereo not given)
Query string: // max by RP-LC retention time over [ a , b ] I would appreciate it if you answered with the label of your choice.
Result string: b
(b: 1290 s, a: 722 s)

P = CCCNC(=O)C1CCCN(c2ccc(SCC(=O)Nc3cccc(Br)c3)nn2)C1 (stereo not given)
Q = Cc1cc2nc(C(=O)Nc3cc(F)cc(F)c3)cc(C)n2n1
Query string: // max by RP-LC retention time over [ P , Q ] I would appreciate it if you answered with the label of your choice.
Result string: Q
(Q: 1050 s, P: 730 s)
